Known IC50 of a selection of molecules
measured.on: Acetylcholinesterase (Homo sapiens, UniProt P22303)
Sequence (P22303 whole entry): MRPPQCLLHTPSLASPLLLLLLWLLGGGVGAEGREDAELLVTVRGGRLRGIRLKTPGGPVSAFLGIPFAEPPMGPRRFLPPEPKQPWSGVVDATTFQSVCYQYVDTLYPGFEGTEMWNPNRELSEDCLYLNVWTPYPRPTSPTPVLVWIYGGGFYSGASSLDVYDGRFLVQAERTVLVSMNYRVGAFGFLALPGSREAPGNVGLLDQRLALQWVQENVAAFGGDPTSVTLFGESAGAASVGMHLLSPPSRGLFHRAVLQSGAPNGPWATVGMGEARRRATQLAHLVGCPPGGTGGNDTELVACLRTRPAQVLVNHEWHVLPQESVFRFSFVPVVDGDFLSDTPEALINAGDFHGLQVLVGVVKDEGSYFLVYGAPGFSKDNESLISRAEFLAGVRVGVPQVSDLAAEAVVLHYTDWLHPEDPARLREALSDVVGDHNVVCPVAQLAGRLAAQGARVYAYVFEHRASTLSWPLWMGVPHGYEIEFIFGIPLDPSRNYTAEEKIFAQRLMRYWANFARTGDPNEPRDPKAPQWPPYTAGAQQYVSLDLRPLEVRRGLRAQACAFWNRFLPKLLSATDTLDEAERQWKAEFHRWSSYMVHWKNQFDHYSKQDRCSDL
Record the value in µM, omitting the unit from your answer.

Field: example entries. Status: answers known.
Task: Find the recorded IC50 belonging to OCc1cc(O)cc(O)c1 and report it.
Output: 28

Task: Find the recorded IC50 belonging to CC(=O)C1=C(O)C=C2Oc3c(C(C)=O)c(O)c(C)c(O)c3[C@@]2(C)C1=O [(+)-USNIC ACID] and report it.
Output: 28

Task: Find the recorded IC50 belonging to CCOC(=O)c1c(C)cc(OC(=O)c2c(C)cc(O)cc2O)cc1O and report it.
Output: 15

Further cases:
Task: Find the recorded IC50 belonging to COC(=O)c1c(C)cc(O)c(Cc2c(O)cc(C)cc2O)c1O and report it.
Output: 15

Task: Find the recorded IC50 belonging to Cc1cc(O)cc(O)c1C(=O)O and report it.
Output: 26

Task: Find the recorded IC50 belonging to CCOC(=O)c1c(O)cc(O)c(Cc2c(O)cc(C)c(C(=O)OCC)c2O)c1C and report it.
Output: 19

Task: Find the recorded IC50 belonging to COCc1c(O)c(Oc2c(C=O)c(O)cc(C)c2C(=O)OC)c2c(c1O)C(=O)O[C@H]2O and report it.
Output: 7.1

Task: Find the recorded IC50 belonging to Cc1cc(O)c(C)c(O)c1 and report it.
Output: 25

Task: Find the recorded IC50 belonging to COC(=O)c1c(C)cc(O)cc1O [METHYL ORSELLINATE] and report it.
Output: 24

Task: Find the recorded IC50 belonging to Cc1cc(O)cc(OC(=O)c2c(C)cc(O)c(C=O)c2O)c1 and report it.
Output: 15

Task: Find the recorded IC50 belonging to CCOC(=O)c1c(O)cc(O)c(Cc2c(O)cc(C)c(C(=O)OC)c2O)c1C and report it.
Output: 20
